Cited source: the supplement of paper PMC10567573

B1: FBXO3 (parent)
chain: AGGFQQRQGLKYCLPLTFCIHTGL

- Variants of: B1
- Experiment: protein stability index of a GFP-peptide fusion (GPS, HEK-293T) (PSI 1-6); higher = more stable;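 also: lentivirally expressed fusions sorted by FACS into six bins by GFP to DsRed ratio, PSI derived from sequencing read proportions per bin multiplied by bin number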
- Condition Info: c terminus: a fixed tail appended
Measure Name: protein stability index

>>> quantitative_readout("AGGFQMRQGLKYCLPLTFCIHTGL")
2.1
>>> quantitative_readout("AGGDQQRQGLKYCLPLTFCIHTGL")
1.87
>>> quantitative_readout("AGGFQQRQGLKYCLPLTFCIHTGP")
1.88
>>> quantitative_readout("AGGFQQRQGLKYCLPLTECIHTGL")
2.36
>>> quantitative_readout("AGGFQGRQGLKYCLPLTFCIHTGL")
2.7
>>> quantitative_readout("AGGFQQGQGLKYCLPLTFCIHTGL")
3.16
>>> quantitative_readout("ANGFQQRQGLKYCLPLTFCIHTGL")
2.94
>>> quantitative_readout("AGGFQQRQGLKYCLPLTFCIYTGL")
3.41
>>> quantitative_readout("AGGRQQRQGLKYCLPLTFCIHTGL")
2.36
>>> quantitative_readout("AGGFQQRQGLKYCLPLTFVIHTGL")
2.83
>>> quantitative_readout("AGGFQQRTGLKYCLPLTFCIHTGL")
3.56
